tested on: breast cancer cell line MX-1; test: MX-1 cell line proliferation assay; type: cell-based; details: Homo sapiens, MX1, 72 h, MX-1 cells, 3-day proliferation assay, Cell Titer Glo; read-out: Cellular proliferation EC50
readout-name: EC50 (nM)

>  <compound>
Cn1cc(-c2cc(S(C)(=O)=O)ccc2O[C@H]2CC[C@@H](O)CC2)c2cc[nH]c(=O)c21 [Example 33]

>  <EC50 (nM)>
716

$$$$
>  <compound>
Cn1cc(-c2cc(S(N)(=O)=O)ccc2Oc2ccc(F)cc2F)c2cc[nH]c(=O)c21 [Example 51]

>  <EC50 (nM)>
201

$$$$

I. Cn1cc(-c2cc(S(C)(=O)=O)ccc2OCCC2CC2)c2c(Cl)c[nH]c(=O)c21 [Example 109]
II. Cn1cc(-c2ccccc2Oc2ccccc2)c2cc[nH]c(=O)c21 [Example 1]
IN: Looking at I and II , which one comes out lower in EC50 terms? Selection: enter the item's label.
OUT: I
(I: 268 nM, II: 584 nM)
